All values here come from paper PMC7486940.

assay: in vivo; conditions: female, C57BL/6J, mouse, ip, 50 mg/kg, brain concentration, Mouse 1
reported-metric: concentration at 0.25 h (nM)
Unit nM implied. Number only.

Problem: Quick one: concentration at 0.25 h of CCO[C@@H]1OC(=O)C[C@@H]1NC(=O)[C@@H]1CCCN1C(=O)[C@@H](NC(=O)c1ccc(N)c(Cl)c1)C(C)(C)C ?
Solution: 240

* * *

assay: in vivo; conditions: female, C57BL/6J, mouse, ip, 50 mg/kg, CSF concentration, Mouse 2
reported-metric: concentration at 8 h

Problem: Item under review: CCO[C@@H]1OC(=O)C[C@@H]1NC(=O)[C@@H]1CCCN1C(=O)[C@@H](NC(=O)c1ccc(N)c(Cl)c1)C(C)(C)C . Reported concentration at 8 h?
Solution: 130 nM
